# Species on record: Bos taurus
# protocol.notes: Activation of bovine brain cAMP-dependent protein kinase assessed as transfer of p32 to histone using [gamma-32P]ATP at 10^-4 M relative to cAMP triester
parameter.measured: Ratio

{"columns": ["chem.smiles", "parameter.measured", "meas.value"],
 "data": [
  ["Nc1ncnc2c1ncn2[C@@H]1O[C@@H]2CO[P@@](=O)(OCc3ccccc3[N+](=O)[O-])O[C@H]2[C@H]1O", "Ratio", 1.28]
]}

(I) Nc1ncnc2c1ncn2[C@@H]1O[C@@H]2CO[P@@](=O)(OCc3ccccc3)O[C@H]2[C@H]1O
(II) CCO[P@]1(=O)OC[C@H]2O[C@@H](n3cnc4c(N)ncnc43)[C@H](O)[C@@H]2O1
Qu. Could you tell me which of I and II has the lower Ratio reading? In your reply, give the label of the chosen option.
Ans. II

---

# Species: Bos taurus
# protocol.notes: Activation of bovine brain cAMP-dependent protein kinase assessed as transfer of p32 to histone using [gamma-32P]ATP at 10^-6 M relative to cAMP triester
parameter.measured: Ratio

{"columns": ["compound", "meas.value"],
 "data": [
  ["Nc1ncnc2c1ncn2[C@@H]1O[C@@H]2CO[P@](=O)(OCc3ccc([N+](=O)[O-])cc3)O[C@H]2[C@H]1O", 0],
  ["COP1(=O)OC[C@H]2O[C@@H](n3cnc4c(N)ncnc43)[C@H](O)[C@@H]2O1 (stereo partly drawn)", 0.05],
  ["CCO[P@@]1(=O)OC[C@H]2O[C@@H](n3cnc4c(N)ncnc43)[C@H](O)[C@@H]2O1", 0]
]}

---

# protocol.notes: Half life in Mops buffer at pH 6.5 at 30 degC by liquid chromatography
# Format: physicochemical
parameter.measured: half-life (h)

Reference set (5 entries):
{"columns": ["compound", "unit.label", "half-life"],
 "data": [
  ["Cc1ccc(CO[P@@]2(=O)OC[C@H]3O[C@@H](n4cnc5c(N)ncnc54)[C@H](O)[C@@H]3O2)cc1", "h", 9.5],
  ["CCO[P@@]1(=O)OC[C@H]2O[C@@H](n3cnc4c(N)ncnc43)[C@H](O)[C@@H]2O1", "h", 9.5],
  ["Nc1ncnc2c1ncn2[C@@H]1O[C@@H]2CO[P@@](=O)(OCc3ccccc3[N+](=O)[O-])O[C@H]2[C@H]1O", "h", 3],
  ["Nc1ncnc2c1ncn2[C@@H]1O[C@@H]2CO[P@](=O)(OCc3ccccc3[N+](=O)[O-])O[C@H]2[C@H]1O", "h", 9.5],
  ["Nc1ncnc2c1ncn2[C@@H]1O[C@@H]2CO[P@@](=O)(OCc3ccccc3)O[C@H]2[C@H]1O", "h", 3]
]}

(1) Nc1ncnc2c1ncn2[C@@H]1O[C@@H]2CO[P@@](=O)(OCc3ccc([N+](=O)[O-])cc3)O[C@H]2[C@H]1O
(2) Nc1ncnc2c1ncn2[C@@H]1O[C@@H]2COP(=O)(OCc3ccccc3)O[C@H]2[C@H]1O (single isomer, unassigned)
Qu. Could you tell me which of 1 and 2 has the lower half-life reading? In your reply, give the label of the chosen option.
Ans. 1
(1: 3 h, 2: 9.5 h)
